B1: TPR 5TU (parent)
chain: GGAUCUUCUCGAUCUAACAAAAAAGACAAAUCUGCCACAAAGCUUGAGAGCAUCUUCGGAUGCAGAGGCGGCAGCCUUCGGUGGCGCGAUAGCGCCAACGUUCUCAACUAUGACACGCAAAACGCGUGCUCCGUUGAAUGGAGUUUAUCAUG

Variants of: B1
assay.method.text: polymerase ribozyme fitness, log enrichment relative to wild type (log ratio); higher = more active; in vitro selection for triplet polymerase activity
This sample holds only a part of the variants without activity.

{"alteration": "G62A A64U C69U C76U G84A C105G C116G", "polymerase ribozyme fitness (log ratio)": "≤ -4.2"}
{"alteration": "U4A A22U C63U G67A C75A G94A C96U", "polymerase ribozyme fitness (log ratio)": "≤ -4.2"}
{"alteration": "U9G G11C C76A G92C U134C U139G A150G", "polymerase ribozyme fitness (log ratio)": "≤ -4.2"}
{"alteration": "A22C G25A C51U A66C C85G C93U C116A", "polymerase ribozyme fitness (log ratio)": "≤ -4.2"}
{"alteration": "G59U C87U C108U C125A", "polymerase ribozyme fitness (log ratio)": -3.4}
{"alteration": "C14U C85U", "polymerase ribozyme fitness (log ratio)": -1.65}
{"alteration": "A28C A49C C96U G133A U134G", "polymerase ribozyme fitness (log ratio)": -4.14}
{"alteration": "A60G U61A A97G", "polymerase ribozyme fitness (log ratio)": -1.38}
{"alteration": "A21G C36U A52U C116U A120U U144C", "polymerase ribozyme fitness (log ratio)": -3.59}
{"alteration": "G88C G100C A106G U146C", "polymerase ribozyme fitness (log ratio)": "≤ -4.2"}
{"alteration": "U7A C8G U13G U90G C95G U134A", "polymerase ribozyme fitness (log ratio)": "≤ -4.2"}
{"alteration": "U53A C54U C57A G86A", "polymerase ribozyme fitness (log ratio)": -2.08}
{"alteration": "C79G A98G G100C G124A", "polymerase ribozyme fitness (log ratio)": -2.18}
{"alteration": "U9C A16G U44G A49G A64G C105G G124A", "polymerase ribozyme fitness (log ratio)": "≤ -4.2"}
{"alteration": "A28C G67A G100C A119G C131U U145G", "polymerase ribozyme fitness (log ratio)": "≤ -4.2"}
{"alteration": "G67U G74C C103U A121U A137C U144G", "polymerase ribozyme fitness (log ratio)": "≤ -4.2"}
{"alteration": "A12C G58C G94C", "polymerase ribozyme fitness (log ratio)": -1.43}
{"alteration": "U6C A23G A91U A106G", "polymerase ribozyme fitness (log ratio)": "≤ -4.2"}
{"alteration": "G48A G88A U134C U144G", "polymerase ribozyme fitness (log ratio)": "≤ -4.2"}
{"alteration": "C18G A24C G34A C57A C85U A89U A97G A120G A121U", "polymerase ribozyme fitness (log ratio)": "≤ -4.2"}
{"alteration": "G34A U56A G92C", "polymerase ribozyme fitness (log ratio)": -1.65}
{"alteration": "A30G C95A U104A C118U C131A A138U G141A", "polymerase ribozyme fitness (log ratio)": "≤ -4.2"}
{"alteration": "U56A G70A C85U A97G G133C", "polymerase ribozyme fitness (log ratio)": "≤ -4.2"}
{"alteration": "A37G G58A G92C G140U", "polymerase ribozyme fitness (log ratio)": "≤ -4.2"}
{"alteration": "U15G G88A", "polymerase ribozyme fitness (log ratio)": -4.08}
{"alteration": "A49C U53A G81C A98U G100A C103A", "polymerase ribozyme fitness (log ratio)": "≤ -4.2"}
{"alteration": "A23C G59A G92U U104C A113C C123U G124A", "polymerase ribozyme fitness (log ratio)": "≤ -4.2"}
{"alteration": "C51U C96U C105U", "polymerase ribozyme fitness (log ratio)": 0.0676}
{"alteration": "U7G A40U C43G A91U", "polymerase ribozyme fitness (log ratio)": "≤ -4.2"}
{"alteration": "A60U A89C", "polymerase ribozyme fitness (log ratio)": -0.611}
{"alteration": "A3U C8A U13G U90A C93A A107G G143C", "polymerase ribozyme fitness (log ratio)": "≤ -4.2"}
{"alteration": "A29C U33G G34U G50C G84C G100C C108A A113U G141U", "polymerase ribozyme fitness (log ratio)": "≤ -4.2"}
{"alteration": "A24C G34C G50C U134A", "polymerase ribozyme fitness (log ratio)": "≤ -4.2"}
{"alteration": "C10U A52C C87U G88A A122U C123G", "polymerase ribozyme fitness (log ratio)": "≤ -4.2"}
{"alteration": "U6G G86U G152U", "polymerase ribozyme fitness (log ratio)": -4.12}
{"alteration": "U13A G34U A49C G140A A142U", "polymerase ribozyme fitness (log ratio)": "≤ -4.2"}
{"alteration": "U15G C18A A23C A60G U104G C123G", "polymerase ribozyme fitness (log ratio)": "≤ -4.2"}
{"alteration": "G42C U44A A49C G126C C131A A142G A147U", "polymerase ribozyme fitness (log ratio)": "≤ -4.2"}
{"alteration": "G80C G84C G133A G141C", "polymerase ribozyme fitness (log ratio)": "≤ -4.2"}
{"alteration": "A26U U55A G74A G92A A110U G136A", "polymerase ribozyme fitness (log ratio)": "≤ -4.2"}
{"alteration": "C10A C14G U77A C85A G92A A110G A122G", "polymerase ribozyme fitness (log ratio)": "≤ -4.2"}
{"alteration": "U33A C57U C79G A89U A97G", "polymerase ribozyme fitness (log ratio)": "≤ -4.2"}
{"alteration": "C57A G74U C85A U130G", "polymerase ribozyme fitness (log ratio)": "≤ -4.2"}
{"alteration": "C85G C118A U146C", "polymerase ribozyme fitness (log ratio)": -2.72}
{"alteration": "U151A", "polymerase ribozyme fitness (log ratio)": -3.44}
{"alteration": "C103A U144G", "polymerase ribozyme fitness (log ratio)": -2.84}
{"alteration": "A12C G50C A66C C79G C93U C95U U139C A147U", "polymerase ribozyme fitness (log ratio)": "≤ -4.2"}
{"alteration": "G86A A110G U145A C149G", "polymerase ribozyme fitness (log ratio)": "≤ -4.2"}
{"alteration": "G42U G84U G117U C118G A142G", "polymerase ribozyme fitness (log ratio)": "≤ -4.2"}
{"alteration": "G83U A107U G141U", "polymerase ribozyme fitness (log ratio)": "≤ -4.2"}
{"alteration": "A29U G70U", "polymerase ribozyme fitness (log ratio)": "≤ -4.2"}
{"alteration": "A60U C96U", "polymerase ribozyme fitness (log ratio)": -0.416}
{"alteration": "C123U G124A U144C", "polymerase ribozyme fitness (log ratio)": 0.0575}
{"alteration": "A39U G46C G48A G50C U56A G84U", "polymerase ribozyme fitness (log ratio)": "≤ -4.2"}
{"alteration": "U55A G84U", "polymerase ribozyme fitness (log ratio)": -2.28}
{"alteration": "C93U A97U C116A G133A", "polymerase ribozyme fitness (log ratio)": "≤ -4.2"}
{"alteration": "C87A G141U", "polymerase ribozyme fitness (log ratio)": -3.64}
{"alteration": "U13G U53A A66C G83U C149A", "polymerase ribozyme fitness (log ratio)": "≤ -4.2"}
{"alteration": "U55A C87U U90C A122U", "polymerase ribozyme fitness (log ratio)": "≤ -4.2"}
{"alteration": "A60C C103A", "polymerase ribozyme fitness (log ratio)": "≤ -4.2"}
{"alteration": "U56A C96G U139G", "polymerase ribozyme fitness (log ratio)": -0.96}
{"alteration": "C69A G140U", "polymerase ribozyme fitness (log ratio)": -3.21}
{"alteration": "A39U C43U U111G", "polymerase ribozyme fitness (log ratio)": "≤ -4.2"}
{"alteration": "U13C C35G C36G U55G G86U", "polymerase ribozyme fitness (log ratio)": -4.16}
{"alteration": "C85A G126C U148A", "polymerase ribozyme fitness (log ratio)": -4.13}

Entry source: the RNAGym collection of RNA variant scans (doi:10.1073/pnas.2313332121)
